Value source: patent US20200069691A1

targetUnderTest: wild-type HIV-1 protease (Human immunodeficiency virus type 1 group M subtype B, UniProt P04585)
Listing of recorded IC50 by entry.
Give just the numeric value; nM need not be written.

{"molecule": "N=C1NC(c2ccccc2)(c2ccccc2)C(=O)N1Cc1cccc(C(=O)N2CCN(c3ccccn3)CC2)c1 [Compound 307]", "resultNumber": 47.7}

Would you kindly look at the next entry?
Incoming: I would be grateful if you could share the reported IC50 for COC(=O)Nc1ncc2c(n1)CN(C(=O)c1cc([C@@H](C)N3C(=N)N[C@](CCC(C)C)(c4ccccc4)C3=O)ccc1C(F)(F)F)C2 [Compound 135] .
Outgoing: 1.28

* * *

targetUnderTest: UniProtKB P04585
Threshold check on IC50: strictly below 10 nM is T; on or above 10 nM is F.

{"molecule": "Cn1ncc2c1CN(C(=O)c1cccc(CN3C(=N)NC(c4ccccc4)(c4ccccc4)C3=O)c1)C2", "classLabel": "F"}
{"molecule": "CCC(c1cccc(C(=O)N2Cc3cncnc3C2)c1)N1C(=N)NC(c2ccccc2)(c2ccccc2)C1=O (stereo not drawn)", "classLabel": "F"}
{"molecule": "CC(c1cccc(C(=O)N2Cc3ccccc3C2)c1)N1C(=N)NC(c2ccccc2)(c2ccccc2)C1=O (stereo not drawn)", "classLabel": "F"}

Incoming: A record lists CC(C)CCC1(c2ccccc2)NC(=N)N(Cc2cccc(C(=O)N3Cc4nccnc4C3)c2)C1=O (stereo not drawn) [Compound 249] . Is its IC50 below 10 nM?
Outgoing: F

* * *

targetUnderTest: wild-type HIV-1 protease (Human immunodeficiency virus type 1 group M subtype B, UniProt P04585)
assayReadout: IC50 (nM)
Form entry: value (nM) — number only.

Here are 2 compounds together with their reported answers.
{"compound": "N=C1NC(CCC2CC2)(c2cccc(C(F)(F)F)c2)C(=O)N1Cc1ccc(C(F)(F)F)c(C(=O)N2Cc3nccnc3C2)c1 (stereo not drawn) [Compound 75]", "IC50 [nM]": 10.2}
{"compound": "CC(C)Cn1cc(-c2ncc3c(n2)CN(C(=O)c2cc(CN4C(=N)N[C@](CCCC(F)(F)F)(c5ccc(F)cc5)C4=O)ccc2C(F)(F)F)C3)cn1", "IC50 [nM]": 4.82}

// below: IC50 requested for another compound
Incoming: Returns the measured IC50 for the input compound. Input: N#Cc1cccc(-c2cccc(C3(c4ccc(F)cc4)NC(=N)N(Cc4cccc(C(=O)N5Cc6ccccc6C5)c4)C3=O)c2)c1 (stereo not drawn)
Outgoing: 39

* * *

In what follows, each item is paired with its IC50 for wild-type HIV-1 protease (Human immunodeficiency virus type 1 group M subtype B).
Report as a plain number; the unit nM is understood.

Field: example entries. Status: answers known.
{"compound": "N#CCc1ccc(-c2ncc3c(n2)CN(C(=O)c2cc(CN4C(=N)N[C@](CCCC(F)(F)F)(c5ccc(F)cc5)C4=O)ccc2C(F)(F)F)C3)cn1", "IC50, nM": 6.6}
{"compound": "N=C1N[C@](CCCC(F)(F)F)(c2ccc(F)cc2)C(=O)N1Cc1ccc(C(F)(F)F)c(C(=O)N2Cc3cnc(N)nc3C2)c1", "IC50, nM": 6.24}
{"compound": "N=C1N[C@](CCCC(F)(F)F)(c2ccc(F)cc2)C(=O)N1Cc1ccc(C(F)(F)F)c(C(=O)N2Cc3cnc(-c4ccccc4)nc3C2)c1", "IC50, nM": 19.2}
{"compound": "CC(C)CCC1(c2ccccc2)NC(=N)N(Cc2ccc(C(F)(F)F)c(C(=O)N3CCC3)c2)C1=O (stereo not drawn)", "IC50, nM": 34.9}
{"compound": "N=C1N[C@@](c2ccc(F)cc2)(C2CCOCC2)C(=O)N1C1CCCc2ccc(C(=O)N3Cc4nccnc4C3)cc21 (stereo in doubt)", "IC50, nM": 80.5}

Incoming: Recorded IC50 of N=C1NC(c2ccc(F)cc2)(c2ccc(F)cc2)C(=O)N1Cc1ccc(Cl)c(C(=O)N2Cc3ccccc3C2)c1 , please.
Outgoing: 7.56

* * *

targetUnderTest: wild-type HIV-1 protease (Human immunodeficiency virus type 1 group M subtype B, UniProt P04585)
pIC50 values for the molecules below.
# log scale: pIC50 equals minus log10 of the concentration in mol/L

{"molecule": "N=C1N[C@](CCCC(F)(F)F)(c2ccc(F)cc2)C(=O)N1Cc1ccc(C(F)(F)F)c(C(=O)N2Cc3cnc(-c4cccc(-c5ccn[nH]5)c4)nc3C2)c1", "pIC50": 8.38}
{"molecule": "COC(=O)N1CCN(C(=O)c2cccc(CN3C(=N)NC(CC(C)C)(c4ccc(F)cc4)C3=O)c2)CC1 (centres unmarked)", "pIC50": 7.45}
{"molecule": "N=C1NC(c2ccccc2)(c2ccccc2)C(=O)N1Cc1cc(F)cc(C(=O)N2Cc3ccccc3C2)c1", "pIC50": 7.39}
{"molecule": "CC(C)CCC1(c2ccccc2)NC(=N)N(Cc2cccc(C(=O)N3Cc4nccnc4C3)c2)C1=O (centres unmarked) [Compound 208]", "pIC50": 7.45}
{"molecule": "N=C1NC(c2ccccc2)(c2ccccc2)C(=O)N1Cc1cccc(C(=O)N2Cc3cnc(C(F)(F)F)nc3C2)c1", "pIC50": 7.78}
{"molecule": "N#Cc1ncc2c(n1)CN(C(=O)c1cc(CN3C(=N)N[C@](CCCC(F)(F)F)(c4ccc(F)cc4)C3=O)ccc1C(F)(F)F)C2", "pIC50": 8.19}
{"molecule": "N=C1NC(c2ccccc2)(c2ccccc2)C(=O)N1Cc1cccc(C(=O)N2CCn3nc(C(F)(F)F)nc3C2)c1 [Compound 343]", "pIC50": 7.10}
{"molecule": "N=C1NC(CCC2CC2)(c2cc(F)cc(F)c2)C(=O)N1Cc1ccc(C(F)(F)F)c(C(=O)N2CCn3c(nnc3C(F)(F)F)C2)c1 (centres unmarked) [Compound 82]", "pIC50": 7.88}
{"molecule": "Cc1ncc2c(n1)CN(C(=O)c1cccc(CN3C(=N)NC(c4ccc(F)cc4)(c4ccc(F)cc4)C3=O)c1)C2", "pIC50": 7.69}
{"molecule": "N=C1NC(c2ccccc2)(c2ccc(-c3ccccc3)cc2)C(=O)N1Cc1cccc(C(=O)N2Cc3nccnc3C2)c1 (centres unmarked)", "pIC50": 7.35}

Incoming: Look at this molecule and give its reported pIC50. CC(C)CC[C@]1(c2ccccc2)NC(=N)N([C@H](C)c2cccc(C(=O)N3Cc4nccnc4C3)c2)C1=O
Outgoing: 7.99

Incoming: Would you mind doing CC(C)CC[C@]1(c2ccccc2)NC(=N)N(Cc2ccc(C(F)(F)F)c(C(=O)N3Cc4nccnc4C3)c2)C1=O as well?
Outgoing: 8.51

Incoming: Another molecule: CC(C)(O)C(=O)N1CCN(C(=O)c2cc(CN3C(=N)N[C@](CCCC(F)(F)F)(c4ccc(F)cc4)C3=O)ccc2C(F)(F)F)CC1
Outgoing: 7.80

* * *

Quick record: IC50, wild-type HIV-1 protease (Human immunodeficiency virus type 1 group M subtype B).
Don't forget the unit after the number, please.

{"molecule": "N=C1N[C@](CCCC(F)(F)F)(c2ccc(F)cc2)C(=O)N1Cc1ccc(C(F)(F)F)c(C(=O)N2Cc3cnc(-c4cnc(-c5ccc(F)cc5)o4)nc3C2)c1", "assayReadout": "IC50", "result": "31.9 nM"}
{"molecule": "CN(C)C(=O)C1c2ccccc2CN1C(=O)c1cccc(CN2C(=N)NC(c3ccccc3)(c3ccccc3)C2=O)c1 (stereo not drawn)", "assayReadout": "IC50", "result": "43.9 nM"}
{"molecule": "N=C1N[C@](CCCC(F)(F)F)(c2ccc(F)cc2)C(=O)N1Cc1ccc(C(F)(F)F)c(C(=O)N2Cc3cnc(-c4ccc(-n5nccn5)cc4)nc3C2)c1", "assayReadout": "IC50", "result": "38.5 nM"}

Incoming: So what IC50 did N=C1NC(c2ccccc2)(c2ccccc2)C(=O)N1Cc1ccc(F)c(C(=O)N2Cc3cncnc3C2)c1 get with wild-type HIV-1 protease (Human immunodeficiency virus type 1 group M subtype B)?
Outgoing: 25.8 nM

Incoming: Record: N=C1NC(c2ccccc2)(c2ccccc2)C(=O)N1Cc1cccc(C(=O)N2Cc3nccnc3C2)c1
Outgoing: 11 nM

Incoming: One more molecule: N=C1N[C@](CCCC(F)(F)F)(c2ccc(F)cc2)C(=O)N1Cc1ccc(C(F)(F)F)c(C(=O)N2Cc3cnc(Cl)nc3C2)c1
Outgoing: 3.42 nM

* * *

Measured log10(IC50) on wild-type HIV-1 protease (Human immunodeficiency virus type 1 group M subtype B) follows.
Recorded IC50 (log10, nM)

{"molecule": "CC(=O)N1CCN(C(=O)c2cccc(CN3C(=N)NC(c4ccccc4)(c4ccccc4)C3=O)c2)CC1 [Compound 352]", "targetUnderTest": "wild-type HIV-1 protease (Human immunodeficiency virus type 1 group M subtype B)", "log10(IC50)": 1.94}
{"molecule": "N=C1NC(c2ccccc2)(c2ccc(Br)cc2)C(=O)N1Cc1cccc(C(=O)N2Cc3ccccc3C2)c1 (stereo not shown) [Compound 213]", "targetUnderTest": "wild-type HIV-1 protease (Human immunodeficiency virus type 1 group M subtype B)", "log10(IC50)": 0.99}
{"molecule": "CC(C)CCC1(c2ccc(F)cc2)NC(=N)N(Cc2cccc(C(=O)N3Cc4nccnc4C3)c2)C1=O (stereo not shown) [Compound 252]", "targetUnderTest": "wild-type HIV-1 protease (Human immunodeficiency virus type 1 group M subtype B)", "log10(IC50)": 1.30}
{"molecule": "N=C1NC(c2ccccc2)(c2ccccc2)C(=O)N1Cc1cc(C(=O)N2Cc3nccnc3C2)ccn1 [Compound 399]", "targetUnderTest": "wild-type HIV-1 protease (Human immunodeficiency virus type 1 group M subtype B)", "log10(IC50)": 1.31}
{"molecule": "Cn1ccc2c(-c3ncc4c(n3)CN(C(=O)c3cc(CN5C(=N)N[C@](CCCC(F)(F)F)(c6ccc(F)cc6)C5=O)ccc3C(F)(F)F)C4)cccc21 [Compound 41]", "targetUnderTest": "wild-type HIV-1 protease (Human immunodeficiency virus type 1 group M subtype B)", "log10(IC50)": 0.63}
{"molecule": "N=C1N[C@](CCCC(F)(F)F)(c2ccc(F)cc2)C(=O)N1[C@@H]1CCCc2ccc(C(=O)N3Cc4nccnc4C3)cc21 [Compound 116]", "targetUnderTest": "wild-type HIV-1 protease (Human immunodeficiency virus type 1 group M subtype B)", "log10(IC50)": 1.58}

Incoming: If you can, please state the reported log10(IC50) value of COC(=O)Nc1ncc2c(n1)CN(C(=O)c1cccc(CN3C(=N)NC(c4ccccc4)(c4ccccc4)C3=O)c1)C2 [Compound 190] .
Outgoing: 0.59
